Ref: patent US10092537B2

Study Target: human PAI-1 (Homo sapiens, UniProt P05121)
Sequence (P05121 24-402): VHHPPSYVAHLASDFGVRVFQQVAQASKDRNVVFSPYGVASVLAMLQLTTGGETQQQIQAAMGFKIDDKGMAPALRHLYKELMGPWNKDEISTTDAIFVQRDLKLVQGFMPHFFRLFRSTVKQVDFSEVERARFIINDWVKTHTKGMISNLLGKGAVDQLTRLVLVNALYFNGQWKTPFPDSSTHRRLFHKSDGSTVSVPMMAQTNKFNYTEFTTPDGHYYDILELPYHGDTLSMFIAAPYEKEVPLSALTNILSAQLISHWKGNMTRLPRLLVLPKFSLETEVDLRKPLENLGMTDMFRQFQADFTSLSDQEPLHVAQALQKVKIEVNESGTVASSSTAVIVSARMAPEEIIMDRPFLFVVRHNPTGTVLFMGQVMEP
Experimental Details: Measurement of PAI-1 inhibitory activity of compound group 1 (t-PA, S-2288 chromogenic substrate)
Test Settings: read-out: PAI-1 activity %
activity at 50 µM listing for selected compounds.
The figure you give is taken to be in %; do not add the unit.

O=C(Nc1ccc(Cl)cc1C(=O)O)c1ccc(-c2cccs2)cc1 :: 7.4
O=C(O)c1cc(Cl)ccc1NC(=O)C1CCCN(C(=O)Cc2cccc(-c3ccoc3)c2)C1 (centres unmarked) :: 15.7
Cn1cc(C(=O)C(=O)Nc2ccc(Cl)cc2C(=O)O)c2cc(-c3ccoc3)ccc21 :: 12.9
O=C(CCCNC(=O)c1cccc(-c2ccoc2)c1)Nc1ccc(Cl)cc1C(=O)O :: 48.9

For the next question, use this compound.
Query :: // lookup activity at 50 µM for O=C(O)c1cc(Cl)ccc1NC(=O)c1ccccc1-c1ccccc1
Result :: 22.2

###

Study Target: human PAI-1 (Homo sapiens, UniProt P05121)
Experimental Details: Measurement of PAI-1 inhibitory activity of compound group 1 (t-PA, S-2288 chromogenic substrate)
Test Settings: read-out: PAI-1 activity %
activity at 20 µM listing for selected molecules.
The figure you give is taken to be in %; do not add the unit.

Answered cases to consult:
O=C(O)c1cc(Cl)ccc1NC(=O)C1CCCN(C(=O)Cc2cccc(-c3ccoc3)c2)C1 (centres unmarked) :: 57.7
O=C(Nc1ccc(Cl)cc1C(=O)O)c1ccc(-c2cccs2)cc1 :: 54.2
O=C(Nc1ccc(Cl)cc1C(=O)O)c1cccc(-c2ccccc2)c1 :: 47.7
O=C(CCCNC(=O)c1cccc(-c2ccoc2)c1)Nc1ccc(Cl)cc1C(=O)O :: 95.5

For the next question, use this molecule.
Query :: // lookup activity at 20 µM for CC(C)(C)c1ccc(C(=O)Nc2ccc(Cl)cc2C(=O)O)cc1 [Known compound (1), reference compound]
Result :: 44

###

Study Target: human PAI-1 (Homo sapiens, UniProt P05121)
Experimental Details: Measurement of PAI-1 inhibitory activity of compound group 1 (t-PA, Spectrozyme t-PA chromogenic substrate)
Test Settings: read-out: PAI-1 activity %
Grouping rule (activity at 10 µM): low = under 0.3%, middle = from 0.3% up to 4%, high = 4% and over

Query :: Dear colleague, I would appreciate it if you could identify the bin for O=C(Nc1ccc(Cl)cc1C(=O)O)c1cccc(-c2ccccc2)c1 [Example 4] and reply at your convenience.
Result :: middle

Query :: Same again, this time with O=C(Nc1ccc(Cl)cc1C(=O)O)c1ccc(CC23CC4CC(CC(C4)C2)C3)cc1 [Example 96]
Result :: high

Query :: Same again, this time with O=C(/C=C/c1cccc(-c2cccc3cccnc23)c1)Nc1ccc(Cl)cc1C(=O)O [Example 101]
Result :: low

###

Study Target: human PAI-1 (Homo sapiens, UniProt P05121)
Experimental Details: Measurement of PAI-1 inhibitory activity of compound group 3 (t-PA, S-2288 chromogenic substrate; Table 4)
Test Settings: compound concentration 50 μM
Label False if PAI-1 activity % falls below 10%; label True in every other case.

Reference set (3 entries):
O=C(Nc1ccc(Cl)cc1C(=O)[O-])c1cccc(-c2cncc3ccccc23)c1.[Na+] :: True
O=C(Nc1ccc(Cl)cc1C(=O)[O-])c1ccc(-c2cccc3cccnc23)cc1.[Na+] :: False
O=C(Nc1ccc(Cl)cc1C(=O)[O-])c1cccc(-c2cccc3cccnc23)c1.[Na+] :: False

Query :: Test whether the compound CC(C(=O)Nc1ccc(Cl)cc1C(=O)O)(c1ccccc1)c1ccccc1 records PAI-1 activity % of 10% or higher.
Result :: False

Query :: Same again, this time with O=C(COc1cccc(-c2ccccc2)c1)Nc1ccc(-c2ccccc2)cc1C(=O)O
Result :: False

Query :: Same again, this time with O=C(Nc1ccc(Cl)cc1C(=O)[O-])c1cccc(-c2cnc3ccccc3c2)c1.[Na+]
Result :: True

Query :: Same again, this time with O=C([O-])c1cc(Cl)ccc1NC(=O)C1CCCN(C(=O)c2cccc(-c3ccoc3)c2)C1.[Na+] (centres unmarked)
Result :: True

Query :: Same again, this time with O=C(Nc1ccc(Cl)cc1C(=O)[O-])c1cccc(-c2ccc3ncccc3c2)c1.[Na+]
Result :: True

Query :: Same again, this time with O=C(COc1ccc(-c2ccccc2)cc1)Nc1ccc(-c2ccoc2)cc1C(=O)O
Result :: True

Query :: Same again, this time with O=C(Nc1ccc(Cl)cc1C(=O)[O-])c1cccc(-c2cccc3cnccc23)c1.[Na+]
Result :: True

Query :: Same again, this time with O=C(Nc1ccc(Cl)cc1C(=O)[O-])c1cccc(-c2ccncc2)c1.[Na+]
Result :: True

###

Study Target: human PAI-1 (Homo sapiens, UniProt P05121)
Experimental Details: Measurement of PAI-1 inhibitory activity of compound group 1 (t-PA, Spectrozyme t-PA chromogenic substrate)
Test Settings: read-out: PAI-1 activity %
activity at 10 µM listing for selected compounds.
The figure you give is taken to be in %; do not add the unit.

Answered cases to consult:
O=C(COc1cccc(C2CCCCC2)c1)Nc1ccc(Cl)cc1C(=O)O :: 0.6
O=C(Nc1ccc(Cl)cc1C(=O)O)c1ccc(C(=O)c2ccccc2)cc1 [Known compound (4), reference compound] :: 8.1

Query :: // lookup activity at 10 µM for Cc1cc(C)cc(-c2ccc(NC(=O)COc3cccc(-c4ccoc4)c3)c(C(=O)O)c2)c1
Result :: 0.5

Query :: Same again, this time with CC(C)(C(=O)Nc1ccc(Cl)cc1C(=O)O)c1cccc(-c2ccoc2)c1
Result :: 5.9

###

Study Target: human PAI-1 (Homo sapiens, UniProt P05121)
Experimental Details: Measurement of PAI-1 inhibitory activity of compound group 1 (t-PA, S-2288 chromogenic substrate)
Test Settings: read-out: PAI-1 activity %
Recorded Endpoint: activity at 50 µM (%)
The figure you give is taken to be in %; do not add the unit.

Answered cases to consult:
O=C(Nc1ccc(Cl)cc1C(=O)O)c1ccc(-c2ccccc2)cc1 [Known compound (2), reference compound] :: 8
O=C([O-])c1cc(Cl)ccc1NC(=O)C1CCCN(C(=O)c2cccc(-c3ccoc3)c2)C1.[Na+] (centres unmarked) :: 26.1

Query :: // lookup activity at 50 µM for O=C(Nc1ccc(Cl)cc1C(=O)O)c1cccc(-c2ccccc2)c1
Result :: 7.6

Query :: Same again, this time with CC(C)(C)c1ccc(C(=O)Nc2ccc(Cl)cc2C(=O)O)cc1 [Known compound (1), reference compound]
Result :: 11

Query :: Same again, this time with O=C(Cc1cccc(-c2ccoc2)c1)Nc1ccc(Cl)cc1C(=O)O
Result :: 19.6

Query :: Same again, this time with Cc1sc(NC(=O)c2cccc(-c3ccoc3)c2)c(C(=O)O)c1-c1ccccc1
Result :: 6.1

Query :: Same again, this time with O=C(O)c1cc(Cl)ccc1NC(=O)[C@@H]1CCCN1C(=O)c1cccc(-c2ccoc2)c1
Result :: 38.3

Query :: Same again, this time with O=C(O)c1cc(Cl)ccc1NC(=O)[C@@H]1CCCN1C(=O)Cc1cccc(-c2ccoc2)c1
Result :: 53.2

###

Experimental Details: Pharmacokinetics after oral gavage (Experimental Example 6)
Format: in vivo, male Wister rats
Test Settings: male, Wistar, rat; 50 mg/kg oral gavage; plasma; reversed-phase HPLC; read-out: T½ (converted)
Recorded Endpoint: half-life (h)
The figure you give is taken to be in h; do not add the unit.

Query :: // lookup half-life for O=C(COCC(=O)N1CCN(C(c2ccccc2)c2ccccc2)CC1)Nc1ccc(Cl)cc1C(=O)[O-].[Na+] [Example 30 (compound group 2)]
Result :: 2.5

###

Study Target: human PAI-1 (Homo sapiens, UniProt P05121)
Experimental Details: Measurement of PAI-1 inhibitory activity of compound group 1 (t-PA, Spectrozyme t-PA chromogenic substrate)
Test Settings: read-out: PAI-1 activity %
Label criterion not met if activity at 10 µM falls below 3%; label criterion met in every other case.

Reference set (2 entries):
O=C(Nc1ccc(Cl)cc1C(=O)[O-])c1cccc(-c2cncc3ccccc23)c1.[Na+] :: criterion not met
O=C(Nc1ccc(Cl)cc1C(=O)O)c1ccc(C(O)C23CC4CC(CC(C4)C2)C3)cc1 (centres unmarked) :: criterion not met

Query :: Test whether the molecule CC(C)(C)c1ccc(C(=O)Nc2ccc(Cl)cc2C(=O)O)cc1 [Known compound (1), reference compound] records activity at 10 µM of 3% or higher.
Result :: criterion met

Query :: Same again, this time with COc1ccccc1-c1cccc(OCC(=O)Nc2ccc(Cl)cc2C(=O)O)c1
Result :: criterion met

Query :: Same again, this time with O=C(COc1ccc(C23CC4CC(CC(C4)C2)C3)cc1)Nc1ccc(-c2ccoc2)cc1C(=O)O
Result :: criterion not met

Query :: Same again, this time with O=C(COc1ccc(-c2ccco2)cc1)Nc1ccc(Cl)cc1C(=O)O
Result :: criterion met

Query :: Same again, this time with O=C(O)c1cc(Cl)ccc1NC(=O)C1CCCC2(CCCCC2)C1 (centres unmarked)
Result :: criterion met
